- Target Under Test: human NR1-NR2A NMDA receptor subunits (Homo sapiens, UniProt Q05586+Q12879)
- Construct: expressed in transfected cells; host or cells: Xenopus laevis oocytes
- Sequence (Q12879 23-1464, other chains not shown): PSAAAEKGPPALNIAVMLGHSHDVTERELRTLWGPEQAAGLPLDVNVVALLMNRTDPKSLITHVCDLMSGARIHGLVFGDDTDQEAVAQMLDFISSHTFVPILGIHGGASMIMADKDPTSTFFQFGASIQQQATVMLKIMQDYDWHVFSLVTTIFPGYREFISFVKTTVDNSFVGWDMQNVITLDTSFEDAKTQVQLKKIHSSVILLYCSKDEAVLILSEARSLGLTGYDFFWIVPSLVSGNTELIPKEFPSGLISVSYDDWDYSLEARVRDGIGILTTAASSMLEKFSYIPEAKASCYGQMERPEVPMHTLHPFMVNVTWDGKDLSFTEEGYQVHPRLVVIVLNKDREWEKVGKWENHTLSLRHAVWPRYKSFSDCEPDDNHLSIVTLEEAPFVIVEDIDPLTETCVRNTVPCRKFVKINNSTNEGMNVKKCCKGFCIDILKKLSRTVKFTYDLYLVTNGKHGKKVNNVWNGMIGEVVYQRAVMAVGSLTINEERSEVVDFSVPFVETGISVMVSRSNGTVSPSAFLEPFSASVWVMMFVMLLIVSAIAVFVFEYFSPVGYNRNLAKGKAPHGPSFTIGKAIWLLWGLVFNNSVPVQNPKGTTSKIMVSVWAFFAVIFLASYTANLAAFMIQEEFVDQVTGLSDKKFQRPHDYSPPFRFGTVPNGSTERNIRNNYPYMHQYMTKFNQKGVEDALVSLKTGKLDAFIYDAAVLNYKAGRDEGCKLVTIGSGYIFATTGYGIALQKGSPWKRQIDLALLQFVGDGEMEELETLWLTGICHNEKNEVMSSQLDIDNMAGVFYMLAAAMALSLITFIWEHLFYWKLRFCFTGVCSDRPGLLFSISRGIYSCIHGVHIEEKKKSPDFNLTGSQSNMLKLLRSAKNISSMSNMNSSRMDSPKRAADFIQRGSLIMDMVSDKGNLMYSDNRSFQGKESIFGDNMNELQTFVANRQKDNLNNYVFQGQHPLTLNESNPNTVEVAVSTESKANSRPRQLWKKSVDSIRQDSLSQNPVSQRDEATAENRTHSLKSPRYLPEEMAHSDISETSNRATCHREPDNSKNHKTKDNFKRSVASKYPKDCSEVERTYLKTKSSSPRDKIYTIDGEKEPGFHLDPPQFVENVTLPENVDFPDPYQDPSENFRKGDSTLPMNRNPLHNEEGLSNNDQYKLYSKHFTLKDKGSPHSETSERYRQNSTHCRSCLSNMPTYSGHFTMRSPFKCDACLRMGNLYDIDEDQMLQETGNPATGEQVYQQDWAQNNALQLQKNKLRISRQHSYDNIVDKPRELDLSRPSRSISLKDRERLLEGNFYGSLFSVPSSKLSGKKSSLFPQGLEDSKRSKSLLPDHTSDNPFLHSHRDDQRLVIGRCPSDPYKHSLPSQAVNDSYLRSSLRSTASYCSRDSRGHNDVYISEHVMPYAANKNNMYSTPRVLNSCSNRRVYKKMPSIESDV
- Measurement Description: amphibian oocyte current blockade assay (agonist-evoked currents)
- Assay type: cell-based
Non-standard residues stand in square brackets, D forms with d. Residues, ends and D or L forms follow the SMILES beside them.
Property Label: IC50 (µM)
All answers are understood in µM, so give the number only.

CC(C)C[C@@H](NC(=O)[C@@H](Cc1ccc(O)cc1)NC(=O)[C@H](N)CCCNC(=N)N)C(=O)N[C@H](Cc1ccccc1)C(=O)N[C@H](CCCNC(=N)N)C(=O)N[C@H](CCCNC(=N)N)C(N)=O [rylfrr] (H-[dR][dY][dL][dF][dR][dR]-NH2)
27

# input for lookup
In: Return IC50 for the following molecule: N=C(N)NCCC[C@H](NC(=O)[C@H](CCCNC(=N)N)NC(=O)[C@H](CCCNC(=N)N)NC(=O)[C@H](CCCNC(=N)N)NC(=O)[C@H](CCCNC(=N)N)NC(=O)[C@@H](N)CCCNC(=N)N)C(N)=O
Out: 0.5

----------
- Target Under Test: human NR1-NR2A NMDA receptor subunits (Homo sapiens, UniProt Q05586+Q12879)
- Construct: expressed in transfected cells; host or cells: Xenopus laevis oocytes
- Measurement Description: amphibian oocyte current blockade assay (agonist-evoked currents)
- Assay type: cell-based
Property Label: IC50
Quick note: number first, unit second.

In: Return IC50 for the following substance: H-RRRRWW-NH2 (C-terminus assumed) [RRRRWW]
Out: 0.1 µM

Origin of values: patent US6251854A
